Source: paper doi:10.1101/2025.03.12.642038

Biological target: T1, IRF4 DBD K123R (Homo sapiens, UniProt Q15306 20-132, K123R)
T1 sequence: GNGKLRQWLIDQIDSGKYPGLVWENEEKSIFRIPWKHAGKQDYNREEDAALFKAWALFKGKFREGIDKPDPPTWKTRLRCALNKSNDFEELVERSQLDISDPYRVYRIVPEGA
Test: SPR two-state kinetic; FP: PBS + 0.05% Tween20, 5 nM DNA, 1 h, room temperature; SPR: Biacore S200, SA chip, protein 0.1-4500 nM, running buffer not given in material; errors are SD
Details: protein: recombinant; tags: N-terminal His8-linker-His8-TEV, cleaved; label: 3' biotin; hairpin, TTTT loop
METRIC_NAME: pKd
For clarity, pKd is expressed as the negative log10 of concentration in mol/L.

// lookup pKd for CTTGGTTTCACTTCCTGCGTTTTCGCAGGAAGTGAAACCAAG (structured_DNA) [IRE hairpin (biotin)]
5.96
